- Test system: COLO 205
- PROCEDURE_SUMMARY: NCI tumour cell line growth inhibition, 48 h
Active and inactive are the calls of the source. Cut-off read from the data, not from the text of the source: active = GI50 up to about 1.1 µM and inactive = higher. Where a SMILES comes first, the peptide text is derived from it. [ ]: non-standard residue; d: D form. The star is where a group is joined. NMeF = CN[C@@H](Cc1ccccc1)C(=O)O; NMeV = CN[C@H](C(=O)O)C(C)C; Boc = CC(C)(C)OC(=O)*; OBn = c1ccc(CO*)cc1
Each item that follows carries a reported GI50.

# COMPOUND, ASSAYED_TARGET, GI50
data = [
    ("C/C(Cl)=N/OC(=O)Nc1ccc(F)c([N+](=O)[O-])c1", "COLO 205", "2.34 µM (inactive)"),
    ("CC1(C)CCCC2(C)[C@@H]1CC[C@@]13CC(=O)[C@@](C)(CC[C@@H]21)C3 (stereo not given in full)", "COLO 205", "> 100 µM (inactive)"),
    ("Nc1nc2c(c(=O)[nH]1)C(c1ccc(Cl)cc1)C=C(c1ccccc1)N2 (stereo not given)", "COLO 205", "19.1 µM (inactive)"),
    ("C/C(=N\\NC(=O)CC(=O)Nc1ccc(C)cc1)c1cc2ccccc2oc1=O", "COLO 205", "> 100 µM (inactive)"),
    ("CN(C)C(=S)NC(=S)Nc1ccc2ccccc2c1", "COLO 205", "13.7 µM (inactive)"),
    ("O=c1c(Sc2c(SCSc3cnc4ccccc4c3Sc3c[nH]c4ccccc4c3=O)cnc3ccccc23)c[nH]c2ccccc12", "COLO 205", "> 100 µM (inactive)"),
    ("COc1ccc(CNc2cnc3ccc(N)cc3n2)cc1OC", "COLO 205", "60 µM (inactive)"),
    ("O=C1CCCC(=O)N1n1c(Cc2ccccc2)n[nH]c1=O", "COLO 205", "> 100 µM (inactive)"),
    ("Cn1c2ccccc2n2c3ccccc3c(=S)c(C#N)c12", "COLO 205", "> 10 µM (inactive)"),
    ("CC(=O)Nc1cc2ccc(=O)oc2cc1Cl", "COLO 205", "> 100 µM (inactive)"),
    ("CC(C)=CC(=O)C[C@H]1C(=O)O[C@@H]2C[C@H]3C(C)=CC(=O)[C@@H](O)[C@]3(C)[C@H]3[C@@]4(O)OC[C@]32[C@@H]1[C@@H](C)[C@H]4O", "COLO 205", "0.125 µM (active)"),
    ("CC(=O)O[C@H]1CC[C@@]2(C)C(=CC[C@H]3[C@@H]4C/C(=C\\c5ccc(N(C)C)cc5)[C@H](OC(C)=O)[C@@]4(C)CC[C@@H]32)C1", "COLO 205", "4.54 µM (inactive)"),
    ("CCSCCC(N)C(=O)O (stereo not given)", "COLO 205", "> 100 µM (inactive)"),
    ("c1ccc(C2=C(c3ccccc3)P(c3ccccc3)C2)cc1 (stereo not given)", "COLO 205", "> 100 µM (inactive)"),
    ("CC(C)[C@@H](C(=O)N1CCC[C@H]1C(=O)OCc1ccccc1)N(C)C(=O)[C@H](C(C)C)N(C)C(=O)[C@H](Cc1ccccc1)N(C)C(=O)[C@H](NC(=O)OC(C)(C)C)C(C)C (Boc-[dV][NMeF][NMeV][NMeV]P-OBn)", "COLO 205", "> 50 µM (inactive)"),
    ("C=C(Cl)C(Cl)(CCl)CCC(Br)C(C)(C)Br (stereo not given)", "COLO 205", "> 10 µM (inactive)"),
    ("OC12c3ccccc3C3CCC4(OCCO4)C3C1c1ccccc12 (stereo not given)", "COLO 205", "> 100 µM (inactive)"),
    ("C/C(=C\\COP(=O)(O)CP(=O)(O)O)CC/C=C(\\C)CNc1ccccc1", "COLO 205", "> 100 µM (inactive)"),
    ("N#Cc1c(=O)c2ccccc2n2c1[nH]c1ccccc12", "COLO 205", "43.1 µM (inactive)"),
    ("O=[N+]([O-])c1cc([As](Br)c2ccc(O)c([N+](=O)[O-])c2)ccc1O", "COLO 205", "1.26 µM (inactive)"),
]
